system: VERO cell line; experiment: Cytotoxicity assay against Vero cell line; format: cell-based, monkey; conditions: read-out: cytotoxicity CC50 in VERO cell line; VERO cells, 72 h, resazurin
readout.type: CC50 (µM)
One number for each entry, in µM.

Example cases with answers are listed next.
Query: Give VERO cell line CC50 for CN(CCCN1CCCC1)c1ccnc2cc(C(F)(F)F)ccc12 [11d]
Result: 78.2

Query: Give VERO cell line CC50 for CN(CCCN1CCCC1)c1ccnc2cc(Cl)ccc12 [11b]
Result: 80.2

Hello, I would appreciate it if you could give CC50 for each entry below.
1. CC(C)CC(CN1CCOCC1)N(C)c1ccnc2cc(Cl)ccc12 (stereo not shown) [9b]
2. CN(CCCN1CCCCC1)c1ccnc2cc(Cl)ccc12 [11a]

Result:
50.8
107
